Experiment: Nitrite reduction to NO by ferrous globins in the presence of excess dithionite
Format: biochemical, human
Conditions: 37°C, 100 mM sodium phosphate, pH 7.4, excess dithionite
result-type: Nitrite reductase reaction rate constant (M⁻¹ s⁻¹)
State just the number; it will be interpreted in M⁻¹ s⁻¹.

The cases that follow already have their Nitrite reductase reaction rate constant on record.
Value of Nitrite reductase reaction rate constant reported for the molecule H81A: human cytoglobin distal histidine His81(E7) to Ala mutant (protein, UniProt Q8WWM9 1-190, looked up, variant H81A) Cytoglobin: MEKVPGEMEIERRERSEELSEAERKAVQAMWARLYANCEDVGVAILVRFFVNFPSAKQYFSQFKHMEDPLEMERSPQLRKAACRVMGALNTVVENLHDPDKVSSVLALVGKAHALKHKVEPVYFKILSGVILEVVAEEFASDFPPETQRAWAKLRGLIYSHVTAAYKEVGWVQQVPNATTPPATLPSSGP is 1100

Quick note, Nitrite reductase reaction rate constant for L108Q: human cytoglobin hydrophobic surface patch mutant Leu108 to Gln (protein, UniProt Q8WWM9 1-190, looked up, variant L108Q) Cytoglobin: MEKVPGEMEIERRERSEELSEAERKAVQAMWARLYANCEDVGVAILVRFFVNFPSAKQYFSQFKHMEDPLEMERSPQLRKHACRVMGALNTVVENLHDPDKVSSVLAQVGKAHALKHKVEPVYFKILSGVILEVVAEEFASDFPPETQRAWAKLRGLIYSHVTAAYKEVGWVQQVPNATTPPATLPSSGP landed at 0.66

Nitrite reductase reaction rate constant measured on T91D: human cytoglobin mutant Thr91 to Asp (protein, UniProt Q8WWM9 1-190, looked up, variant T91D) Cytoglobin: MEKVPGEMEIERRERSEELSEAERKAVQAMWARLYANCEDVGVAILVRFFVNFPSAKQYFSQFKHMEDPLEMERSPQLRKHACRVMGALNDVVENLHDPDKVSSVLALVGKAHALKHKVEPVYFKILSGVILEVVAEEFASDFPPETQRAWAKLRGLIYSHVTAAYKEVGWVQQVPNATTPPATLPSSGP = 1.24

Given item Neuroglobin H64L: His-tagged neuroglobin distal histidine His64(E7) to Leu mutant (protein, UniProt Q9NPG2 1-151, looked up, variant H64L) Neuroglobin: MERPEPELIRQSWRAVSRSPLEHGTVLFARLFALEPDLLPLFQYNCRQFSSPEDCLSSPEFLDLIRKVMLVIDAAVTNVEDLSSLEEYLASLGRKHRAVGVKLSSFSTVGESLLYMLEKCLGPAFTPATRAAWSQLYGAVVQAMSRGWDGE , the value recorded as its Nitrite reductase reaction rate constant is 302

Form: molecule = H81L: human cytoglobin distal histidine His81(E7) to Leu mutant (protein, UniProt Q8WWM9 1-190, looked up, variant H81L) Cytoglobin: MEKVPGEMEIERRERSEELSEAERKAVQAMWARLYANCEDVGVAILVRFFVNFPSAKQYFSQFKHMEDPLEMERSPQLRKLACRVMGALNTVVENLHDPDKVSSVLALVGKAHALKHKVEPVYFKILSGVILEVVAEEFASDFPPETQRAWAKLRGLIYSHVTAAYKEVGWVQQVPNATTPPATLPSSGP ; Nitrite reductase reaction rate constant = 76

The molecule listed as K116E: human cytoglobin surface mutant Lys116 to Glu (protein, UniProt Q8WWM9 1-190, looked up, variant K116E) Cytoglobin: MEKVPGEMEIERRERSEELSEAERKAVQAMWARLYANCEDVGVAILVRFFVNFPSAKQYFSQFKHMEDPLEMERSPQLRKHACRVMGALNTVVENLHDPDKVSSVLALVGKAHALEHKVEPVYFKILSGVILEVVAEEFASDFPPETQRAWAKLRGLIYSHVTAAYKEVGWVQQVPNATTPPATLPSSGP shows Nitrite reductase reaction rate constant equal to 0.65

Lab note: H81W: human cytoglobin distal histidine His81(E7) to Trp mutant (protein, UniProt Q8WWM9 1-190, looked up, variant H81W) Cytoglobin: MEKVPGEMEIERRERSEELSEAERKAVQAMWARLYANCEDVGVAILVRFFVNFPSAKQYFSQFKHMEDPLEMERSPQLRKWACRVMGALNTVVENLHDPDKVSSVLALVGKAHALKHKVEPVYFKILSGVILEVVAEEFASDFPPETQRAWAKLRGLIYSHVTAAYKEVGWVQQVPNATTPPATLPSSGP gave Nitrite reductase reaction rate constant of 10.7

Lab book: Nitrite reductase reaction rate constant of R84E: human cytoglobin surface mutant Arg84 to Glu (protein, UniProt Q8WWM9 1-190, looked up, variant R84E) Cytoglobin: MEKVPGEMEIERRERSEELSEAERKAVQAMWARLYANCEDVGVAILVRFFVNFPSAKQYFSQFKHMEDPLEMERSPQLRKHACEVMGALNTVVENLHDPDKVSSVLALVGKAHALKHKVEPVYFKILSGVILEVVAEEFASDFPPETQRAWAKLRGLIYSHVTAAYKEVGWVQQVPNATTPPATLPSSGP noted as 0.90

New cases:
Nitrite reductase reaction rate constant for V105Y: human cytoglobin hydrophobic surface patch mutant Val105 to Tyr (protein, UniProt Q8WWM9 1-190, looked up, variant V105Y) Cytoglobin: MEKVPGEMEIERRERSEELSEAERKAVQAMWARLYANCEDVGVAILVRFFVNFPSAKQYFSQFKHMEDPLEMERSPQLRKHACRVMGALNTVVENLHDPDKVSSYLALVGKAHALKHKVEPVYFKILSGVILEVVAEEFASDFPPETQRAWAKLRGLIYSHVTAAYKEVGWVQQVPNATTPPATLPSSGP is 3.76

// Nitrite reductase reaction rate constant lookup, molecule = H81Q: human cytoglobin distal histidine His81(E7) to Gln mutant (protein, UniProt Q8WWM9 1-190, looked up, variant H81Q) Cytoglobin: MEKVPGEMEIERRERSEELSEAERKAVQAMWARLYANCEDVGVAILVRFFVNFPSAKQYFSQFKHMEDPLEMERSPQLRKQACRVMGALNTVVENLHDPDKVSSVLALVGKAHALKHKVEPVYFKILSGVILEVVAEEFASDFPPETQRAWAKLRGLIYSHVTAAYKEVGWVQQVPNATTPPATLPSSGP , result: 210
